B1: PPP2R2B (parent)
chain: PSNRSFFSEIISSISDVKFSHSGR

Variants of: B1
Assay: protein stability index of a GFP-peptide fusion (GPS, HEK-293T) (PSI 1-6); higher = more stable;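 note: lentivirally expressed fusions sorted by FACS into six bins by GFP to DsRed ratio, PSI derived from sequencing read proportions per bin multiplied by bin number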
Settings: c terminus: a fixed tail appended
endpoint: protein stability index
Could you keep your reply to the number by itself?

N3V
1.74
I11W
2.59
H21A
2.7
S22D
2.79
S5E
2.9
S12C
2.06
S12H
2.32
I10V
2.83
S2F
1.99
S12W
1.98

Exercise: Could you share which protein stability index value was measured for "H21I" ?
Solution: 2.13

Exercise: Then this variant: "G23E"
Solution: 2.7

Exercise: Then this variant: "I14F"
Solution: 2.17

Exercise: Then this variant: "S20L"
Solution: 2.41

Exercise: Then this variant: "D16N"
Solution: 2.57

Exercise: Then this variant: "F7M"
Solution: 2.79
